Reference source: patent US20170189507A1

# ASSAYED_SYSTEM: HLA-A*24 (human)
# PROCEDURE_SUMMARY: UV-ligand exchange ELISA
RESULT_TYPE: peptide exchange yield

Incoming: Suppose we examine the binder EYPLVINTL [peptide SEQ ID No 219] ; what peptide exchange yield value has been reported?
Outgoing: 50 to 75%

Incoming: Suppose we examine the binder EYINQGDLHEF [peptide SEQ ID No 275] ; what peptide exchange yield value has been reported?
Outgoing: 50 to 75%

Incoming: Suppose we examine the binder TYIKPISKL [peptide SEQ ID No 273] ; what peptide exchange yield value has been reported?
Outgoing: 50 to 75%
